- tested-target: T1, human C5 R885H-mmh (human, UniProt P01031 19-1676)
- T1 construct: also called human C5 variant R885H
- protocol: SPR, mAb captured via anti-hFc, 25C
Labelling: Kd reported below 0.4 nM becomes true (1); at or above becomes false (0).

## Input Does H4H12169P (antibody, human IgG4, V domains shown, Human IgG4 Fc with S108P hinge mutation (H4H)) VH: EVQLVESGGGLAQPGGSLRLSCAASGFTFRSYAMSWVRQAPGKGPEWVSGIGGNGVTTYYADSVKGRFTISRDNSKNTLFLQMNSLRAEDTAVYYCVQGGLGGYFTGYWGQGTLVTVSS VL: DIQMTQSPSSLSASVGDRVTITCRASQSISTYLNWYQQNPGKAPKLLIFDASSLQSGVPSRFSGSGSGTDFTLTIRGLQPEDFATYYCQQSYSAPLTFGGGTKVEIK have Kd strictly under 0.4 nM?
## Output true (1)

## Input Does H4H11686N (antibody, V domains shown, also called H2M11686N) VH: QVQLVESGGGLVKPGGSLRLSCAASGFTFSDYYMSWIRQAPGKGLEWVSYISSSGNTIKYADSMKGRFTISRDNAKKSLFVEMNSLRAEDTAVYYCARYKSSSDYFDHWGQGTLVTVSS VL: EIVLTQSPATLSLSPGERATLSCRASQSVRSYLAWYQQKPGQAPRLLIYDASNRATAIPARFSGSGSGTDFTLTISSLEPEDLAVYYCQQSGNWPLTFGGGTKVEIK have Kd strictly under 0.4 nM?
## Output false (0)

## Input Does H4H12159P (antibody, human IgG4, V domains shown, Human IgG4 Fc with S108P hinge mutation (H4H)) VH: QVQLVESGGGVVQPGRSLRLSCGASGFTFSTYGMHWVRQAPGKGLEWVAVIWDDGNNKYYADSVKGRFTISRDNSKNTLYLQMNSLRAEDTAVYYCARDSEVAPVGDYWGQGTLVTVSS VL: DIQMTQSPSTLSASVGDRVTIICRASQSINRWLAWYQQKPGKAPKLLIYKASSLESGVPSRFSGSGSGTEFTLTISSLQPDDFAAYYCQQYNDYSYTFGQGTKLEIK have Kd strictly under 0.4 nM?
## Output true (1)

## Input Does H4H12168P (antibody, human IgG4, V domains shown, Human IgG4 Fc with S108P hinge mutation (H4H)) VH: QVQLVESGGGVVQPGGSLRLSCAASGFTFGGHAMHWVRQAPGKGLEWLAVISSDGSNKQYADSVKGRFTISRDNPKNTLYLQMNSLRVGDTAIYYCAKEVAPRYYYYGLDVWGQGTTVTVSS VL: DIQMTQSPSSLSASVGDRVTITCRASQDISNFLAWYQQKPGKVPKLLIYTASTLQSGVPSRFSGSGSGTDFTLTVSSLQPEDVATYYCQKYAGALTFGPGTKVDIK have Kd strictly under 0.4 nM?
## Output false (0)
